Measured values drawn from patent US20250277208A1 for this set.

system: T1, Biotinylated recombinant human IL-6 (human, UniProt P05231 30-212, biotinylated (sites not given))
T1 construct: In the cell bioassay IL-6 (0.5 nM) was used in solution; also called Interleukin-6; IL-6-Biotin
assay protocol: SPR (Biacore), IL-6 on chip
test readout: Kd (nM)

Examples with answers:
INSERT INTO measurements (binder, unit_abbrev, test_result) VALUES
  ('Ac-FSFRDLIRMMKVCVG-NH2 [Peptide 93]', 'nM', 265),
  ('Ac-TIRDLLRMMKVIVG-NH2 [Peptide 84]', 'nM', 565),
  ('Ac-SVRDLIRRMCHIVG-NH2 [Peptide 68]', 'nM', 724),
  ('Ac-SVRDLLRMMCHIVG-NH2 [Peptide 69]', 'nM', 172),
  ('Ac-FAFRDLLRMMCHIVG-NH2 [Peptide 75]', 'nM', 132),
  ('Ac-SVRDLLRRMCHIVG-NH2 (peptide 9 with protected termini) [Peptide 9 (2)]', 'nM', 354),
  ('Ac-FAFRDLIRMMCHIVG-NH2 (also called variant 58) [Peptide 58]', 'nM', 71),
  ('Ac-FAFRDLIRMMKHIVG-NH2 [Peptide 77]', 'nM', 405);

P: Ac-FAFRDLLRRMCHIVG-NH2 [Peptide 45 (2)]
Q: Ac-SFRDLIRMMKVCVG-NH2 [Peptide 90]
R: Ac-ATIRDLLRRMKVCVG-NH2 [Peptide 53]
S: Ac-SVRDLIRMMKVCVG-NH2 [Peptide 64]
Order the items by recorded Kd; the first position goes to the largest value. # format: label list in the order the request specifies S, R, P, Q

I: Ac-TIRDLLRRMCHIVG-NH2 [Peptide 71]
II: Ac-ASVRDLLRRMCHIVG-NH2 [Peptide 54]
III: Ac-ATIRDLLRRMCHIVG-NH2 [Peptide 38 (2)]
Given 3 binders, produce a descending ranking by Kd. Show the ranking through the labels, in the order asked for. II, III, I
